# Test system: HSkMC
# experiment.description: cytotoxicity call (relative viability < 0.9)
# condition.info: 10 µM
Among all 39,000 compounds or so, about 1,500 (3.8%) were called active. What follows is part of a selection rich in actives, with near analogues and random picks from the rest.
Write down one outcome, taken from Yes = active, No = inactive

Before answering, review these 4 worked examples.
chem.smiles | class.assignment
CC(=O)N[C@H](Cc1ccc2ccccc2c1)C(=O)N[C@H](Cc1ccc(Cl)cc1)C(=O)N[C@H](Cc1cccnc1)C(=O)N[C@@H](CO)C(=O)N(C)[C@@H](Cc1ccc(O)cc1)C(=O)N[C@H](CC(N)=O)C(=O)N[C@@H](CC(C)C)C(=O)N[C@@H](CCCCNC(C)C)C(=O)N1CCC[C@H]1C(=O)N[C@H](C)C(N)=O | No
CC(C)[Si]1(C(C)C)OCc2cc(-c3ccc(-c4ccc(Cl)c(Cl)c4)o3)nc(CCc3ccccc3)c21 | No
C[C@@H]1CCCCO[C@@H](CN(C)Cc2ccc(C(F)(F)F)cc2)[C@H](C)CN([C@@H](C)CO)C(=O)c2cc(NC(=O)CCC(F)(F)F)ccc2O1 | No
O=C1N[C@@H](c2ccccc2)COCc2cn(nn2)CC[C@H](Cc2ccc(C(F)(F)F)cc2)C(=O)N[C@@H](c2ccccc2)COCc2cn(nn2)CC[C@@H]1Cc1ccc(C(F)(F)F)cc1 | No

Answer briefly: the call reported for COc1ccc(CN(C)C[C@H]2Oc3ccc(NC(=O)Nc4ccc(C(F)(F)F)cc4)cc3C(=O)N([C@@H](C)CO)C[C@H]2C)cc1 in this assay.
Yes

====

# Tested on: HSkMC
# experiment.description: cytotoxicity call (relative viability < 0.9)
# condition.info: 10 µM
The campaign covered roughly 39,000 compounds. About 1,500 (3.8%) were called active. Many of the other results were omitted from the sample, so actives are more common in it than they were.
Write down one outcome, taken from yes (1) (active), no (0) (inactive)

Before answering, review these 3 worked examples.
chem.smiles | class.assignment
C[C@@H]1CCCCO[C@H](CN(C)Cc2ccc(C(=O)O)cc2)[C@H](C)CN([C@@H](C)CO)C(=O)c2cc(NC(=O)c3ccccc3)ccc2O1 | no (0)
Cc1ccc(S(=O)(=O)Nc2ccc3c(c2)C(=O)N([C@@H](C)CO)C[C@@H](C)[C@H](CN(C)C(=O)Nc2ccc(C(F)(F)F)cc2)O3)cc1 | no (0)
C[C@@H]1CN([C@@H](C)CO)C(=O)c2cccc(NS(C)(=O)=O)c2O[C@@H]1CN(C)S(=O)(=O)c1cn(C)cn1 | no (0)

Answer briefly: the call reported for CC(C)NC(=O)Nc1cccc2c1O[C@H](CN(C)C(=O)Nc1ccc3c(c1)OCO3)[C@@H](C)CN([C@@H](C)CO)C2=O in this assay.
no (0)

Answer briefly: the call reported for C[C@@H]1CN([C@@H](C)CO)C(=O)c2cc(NC(=O)Cc3cn(C)c4ccccc34)ccc2O[C@@H]1CN(C)C(=O)Nc1ccc(C(F)(F)F)cc1 in this assay.
yes (1)

Answer briefly: the call reported for COc1ccc2c(-c3ccc(Cl)cc3)c(C)oc2c1 in this assay.
no (0)

Answer briefly: the call reported for C[C@H](CO)N1C[C@H](C)[C@@H](CN(C)C(=O)Nc2ccc(C(F)(F)F)cc2)Oc2ccc(NC(=O)Cc3cn(C)c4ccccc34)cc2C1=O in this assay.
no (0)

====

# System: HSkMC
# experiment.description: cytotoxicity call (relative viability < 0.9)
# condition.info: 10 µM
The campaign covered roughly 39,000 compounds. About 1,500 (3.8%) were called active. This excerpt belongs to a sample that is enriched for actives.
Write down one outcome, taken from active, inactive

Before answering, review these 6 worked examples.
chem.smiles | target.or.system | class.assignment
C[C@H](CO)N1C[C@H](C)[C@H](CN(C)CC2CCOCC2)Oc2cc(C#Cc3ccccc3F)ccc2S1(=O)=O | HSkMC | inactive
C=CCC[C@@H](Cc1ccc(F)cc1)C(=O)OC[C@@H]1CCCN1C(=O)[C@@H](CC=C)CC(=O)N(CCO)Cc1ccccc1 | HSkMC | inactive
O=C(C[C@@H]1C[C@@H]2c3cc(NC(=O)C4CCOCC4)ccc3O[C@@H]2[C@H](CO)O1)NCCN1CCCCC1 | HSkMC | inactive
C=CCC[C@H](Cc1ccc(F)cc1)C(=O)OC[C@H]1CCCN1C(=O)[C@@H](CC=C)CC(=O)N(CCO)Cc1ccccc1 | HSkMC | active
COc1ccc(S(=O)(=O)N(C)C[C@H]2Oc3ccc(NC(=O)Nc4c(C)noc4C)cc3C(=O)N([C@@H](C)CO)C[C@H]2C)cc1 | HSkMC | inactive
C[C@@H]1CN([C@H](C)CO)C(=O)c2cc(NC(=O)Nc3ccccc3)ccc2O[C@@H]1CN(C)Cc1ccc(Cl)c(Cl)c1 | HSkMC | inactive

Next up:
Answer briefly: the call reported for C=CCC[C@H](Cc1ccc(F)cc1)C(=O)OC[C@@H]1CCCN1C(=O)[C@@H](CC=C)CC(=O)N(CCO)Cc1ccccc1 in this assay.
active

====

# Test system: HSkMC
# experiment.description: cytotoxicity call (relative viability < 0.9)
# condition.info: 10 µM
About 1,500 (3.8%) of roughly 39,000 compounds were called active. The full list was thinned out, with actives kept by preference.
Write down one outcome, taken from active, inactive

Before answering, review these 3 worked examples.
compound | target.or.system | class.assignment
C[C@H]1CCCCO[C@H](CN(C)S(=O)(=O)c2ccccc2)[C@@H](C)CN([C@@H](C)CO)C(=O)c2cc(NS(=O)(=O)c3cn(C)cn3)ccc2O1 | HSkMC | inactive
O=C(C[C@H]1C[C@@H]2c3cc(NS(=O)(=O)c4ccc(F)cc4)ccc3O[C@@H]2[C@@H](CO)O1)NCc1cccc(F)c1 | HSkMC | inactive
C[C@@H]1CN([C@@H](C)CO)C(=O)c2cc(NC(=O)Nc3ccc(F)cc3)ccc2O[C@@H](C)CCCCO[C@@H]1CN(C)CC1CCCCC1 | HSkMC | active

Answer briefly: the call reported for CC(=O)OC1CCC2(C)C(CCC3C2CC(=O)C2(C)C3CC3OC4(CCC(C)CO4)C(C)C32)C1 (stereo not drawn) in this assay.
inactive

Answer briefly: the call reported for C[C@@H]1CN([C@@H](C)CO)C(=O)c2cc(NC(=O)Nc3ccc(F)cc3)ccc2O[C@@H](C)CCCCO[C@H]1CN(C)CC1CCCCC1 in this assay.
inactive

Answer briefly: the call reported for CC1CCC2(OC1)OC1CC3C4CCC5CC(O)CCC5(C)C4CC(=O)C3(C)C1C2C (stereo not drawn) in this assay.
inactive

Answer briefly: the call reported for CC(=O)OC1CCC2(C)C(CCC3C2CCC2(C)C3CC3OC4(CCC(C)CO4)C(C)C32)C1 (stereo not drawn) in this assay.
inactive

Answer briefly: the call reported for C[C@@H]1CCCCO[C@@H](CN(C)CC2CCCCC2)[C@@H](C)CN([C@@H](C)CO)C(=O)c2cc(NC(=O)Nc3ccc(F)cc3)ccc2O1 in this assay.
inactive

Answer briefly: the call reported for C[C@@H]1CCCCO[C@@H](CN(C)CC2CCCCC2)[C@H](C)CN([C@H](C)CO)C(=O)c2cc(NC(=O)Nc3ccc(F)cc3)ccc2O1 in this assay.
inactive

====

# Tested on: HSkMC (human skeletal muscle cells)
# experiment.description: cytotoxicity call (relative viability < 0.9)
# condition.info: 10 µM
Screen size: about 39,000 compounds; about 1,500 (3.8%) were called active. The sample as a whole holds a higher share of actives than the screen did.
Write down one outcome, taken from T = active, F = inactive

chem.smiles | target.or.system | class.assignment
Cc1noc(C)c1S(=O)(=O)N(C)C[C@H]1Oc2ccc(NC(=O)Cn3cnnn3)cc2C(=O)N([C@@H](C)CO)C[C@H]1C | HSkMC | F
Cc1noc(C)c1S(=O)(=O)N(C)C[C@H]1Oc2ccc(NC(=O)Cn3cnnn3)cc2C(=O)N([C@H](C)CO)C[C@H]1C | HSkMC | T
C[C@@H]1CN([C@@H](C)CO)C(=O)Cc2cc(NC(=O)Nc3ccc(F)cc3)ccc2O[C@@H]1CN(C)Cc1ccc(Cl)c(Cl)c1 | HSkMC | T
Cc1ccc(S(=O)(=O)Nc2ccc3c(c2)C(=O)N([C@H](C)CO)C[C@@H](C)[C@H](CN(C)CC2CCCCC2)OCCCC[C@@H](C)O3)cc1 | HSkMC | F
COc1ccc(S(=O)(=O)N(C)C[C@@H]2OCc3cn(nn3)CCCC(=O)N([C@H](C)CO)C[C@@H]2C)cc1 | HSkMC | F
O=C(C[C@@H]1CC[C@H]2NC[C@H](O)COC[C@@H]2O1)NCCN1CCCC1 | HSkMC | F
Cc1noc(C)c1S(=O)(=O)N(C)C[C@@H]1Oc2ccc(NC(=O)Cn3cnnn3)cc2C(=O)N([C@@H](C)CO)C[C@@H]1C | HSkMC | F
C[C@H](NC(=O)C[C@H]1C[C@H]2c3cc(NC(=O)Nc4ccc(C(F)(F)F)cc4)ccc3O[C@H]2[C@H](CO)O1)c1ccccc1 | HSkMC | F
Cc1noc(C)c1NC(=O)N(C)C[C@@H]1OCCCC[C@@H](C)Oc2ccc(NS(=O)(=O)c3ccc(Cl)cc3)cc2C(=O)N([C@H](C)CO)C[C@H]1C | HSkMC | F
C[C@@H]1CCCCO[C@H](CN(C)S(=O)(=O)c2ccccc2)[C@H](C)CN([C@@H](C)CO)C(=O)c2cc(NS(=O)(=O)c3ccc(Cl)cc3)ccc2O1 | HSkMC | F

Answer briefly: the call reported for Cc1noc(C)c1S(=O)(=O)N(C)C[C@H]1OCCCC[C@H](C)Oc2ccc(NC(=O)Nc3ccccc3)cc2C(=O)N([C@H](C)CO)C[C@@H]1C in this assay.
T

Answer briefly: the call reported for C[C@@H]1CN([C@@H](C)CO)C(=O)Cc2cc(NC(=O)Nc3ccc(F)cc3)ccc2O[C@H]1CN(C)Cc1ccc(Cl)c(Cl)c1 in this assay.
T

Answer briefly: the call reported for C[C@H](CO)N1C[C@H](C)[C@@H](CN(C)Cc2ccc(Cl)c(Cl)c2)Oc2ccc(NC(=O)Nc3ccc(F)cc3)cc2CC1=O in this assay.
T

Answer briefly: the call reported for COc1ccc(S(=O)(=O)N2C[C@H](O)COC[C@@H]3O[C@@H](CC(=O)N[C@H]4CCN(Cc5ccccc5)C4)CC[C@H]32)cc1 in this assay.
F

The reported measurements were obtained from the antibiotic and cytotoxicity screens of Wong et al. (2023).
